This section presents compounds with their documented GI50 values.
Test system: DMS-273
procedureDetails: NCI tumour cell line growth inhibition, 48 h
Active and inactive are the calls of the source. Rule as the data show it: active = GI50 up to about 1.1 µM and inactive = higher.

Some solved entries appear below for comparison.
- compound: "CCC(C)CN1C(=O)NC(Cc2ccccc2)C1=O (stereo not given)"
  measuredTarget: "DMS-273"
  result: "> 100 µM (inactive)"
- compound: "COc1cc2c(cc1O)C1C(O)C(O)C=C3CCN(C2)C31 (stereo not given)"
  measuredTarget: "DMS-273"
  result: "1.95 µM (inactive)"
- compound: "COC(=O)[C@H]1C=C[C@@H](C)n2c(=O)c3cc4ccccc4cc3c(=O)n21"
  measuredTarget: "DMS-273"
  result: "> 100 µM (inactive)"
- compound: "C=CCn1c(=O)n(CC=C)c(=O)n(CC=C)c1=O"
  measuredTarget: "DMS-273"
  result: "> 100 µM (inactive)"

Query: Please report the measured GI50 for Cc1c(/C=N/N(C)C)oc2c1cc(O)c1ncccc12 tested on DMS-273.
Response: 5.31 µM (inactive)

Reference source: ChEMBL document CHEMBL1201862
